Assay: Pharmacokinetics, dog
Type: in vivo, Beagle dogs
Conditions: beagle, in vivo, iv, 1 mg/kg, IV, 1 mg/kg, read-out: AUC0-last (AUC0-24)
valueKind: AUC(0-t)

Sample C[C@H](Nc1ncnc2[nH]cnc12)c1cc2cccc(Cl)c2c(=O)n1-c1ccccc1 [Compound 292] ; AUC(0-t) observed: 5880 ng·h/mL

---

Consider the following molecules; for each one, report its pIC50.
pIC50: −log10 of the molar value.

Summary: Cc1cccnc1-n1c(Cn2nc(-c3ccc(F)c(O)c3)c3c(N)ncnc32)cc2cccc(C)c2c1=O , PI3K β (Homo sapiens, UniProt P42338), pIC50 = < 5.00

Item CCC(Nc1ncnc2[nH]cnc12)c1cc2cccc(C)c2c(=O)n1-c1ccccc1C (centres unmarked) was tested on PI3K β (Homo sapiens, UniProt P42338); the reported pIC50 is > 5.00

Result for Cc1ccccc1-n1c(Cn2nc(-c3ccc(O)cc3)c3c(N)ncnc32)cc2cccc(C)c2c1=O , tested on PI3K β (Homo sapiens, UniProt P42338), pIC50: < 5.00

So the reported pIC50 for Cc1cccc2cc(Cn3nc(-c4cc(O)cc(F)c4)c4c(N)ncnc43)n(C3CC3)c(=O)c12 , on PI3K β (Homo sapiens, UniProt P42338), turned out to be > 7.00

Note to self: pIC50 of Cc1cccnc1-n1c(Cn2nc(-c3cccc(O)c3)c3c(N)ncnc32)cc2cccc(C)c2c1=O with PI3K β (Homo sapiens, UniProt P42338) was < 5.00

pIC50 for PI3K β (Homo sapiens, UniProt P42338) with input Cc1cccc2cc(Cn3nc(-c4cccc(O)c4)c4c(N)ncnc43)n(-c3ccccc3F)c(=O)c12 equals < 5.00

Form: item COc1ccccc1-n1c(Cn2nc(I)c3c(N)ncnc32)cc2cccc(C)c2c1=O ; test system PI3K β (Homo sapiens, UniProt P42338); pIC50: < 5.00

Considering Cc1cccc2cc(Cn3nc(-c4cccc(O)c4)c4c(N)ncnc43)n(-c3ccccc3O)c(=O)c12 , its pIC50 with PI3K β (Homo sapiens, UniProt P42338) was recorded as > 5.00

---

Biological target: UniProt:P42338
valueKind: IC50

Form: molecule = CC(=O)Nc1nc2cc(-c3nn(Cc4cc5cccc(C)c5c(=O)n4-c4ccccc4C)c4ncnc(N)c34)ccc2s1 [Compound 274] ; IC50 = < 10 µM

What the record says about CCN(Cc1cc2cccc(C)c2c(=O)n1-c1ccccc1C)c1ncnc2[nH]cnc12 [Compound 186] : IC50 is > 10 µM

Cc1ccccc1-n1c(Cn2nc(-c3cnn(CCO)c3)c3c(N)ncnc32)cc2cccc(C)c2c1=O [Compound 163] has a reported IC50 of > 10 µM

For reference, reported IC50 for CCC(Nc1ncnc2[nH]cnc12)c1cc2cccc(C)c2c(=O)n1C1CCC1 (stereo not shown) [Compound 212] stands at < 10 µM

Entry Cc1ccccc1-n1c(Cn2nc(-c3ccc4oc(N)nc4c3)c3c(N)ncnc32)cc2cccc(C)c2c1=O [Compound 151] ; IC50 = < 10 µM

Consider Cc1cccc2cc([C@H](C)Nc3ncnc4[nH]c(O)nc34)n(-c3ccccc3)c(=O)c12 [Compound 263] . Its measured IC50 is > 10 µM

// recorded IC50 for Cc1ccccc1-n1c(Cn2nc(-c3ccc(O)c(Cl)c3)c3c(N)ncnc32)cc2cccc(C)c2c1=O [Compound 25] : < 10 µM
